The reported numbers originate from patent US20170334899A1.

IC50 overview
tested on: human cervical tumor cell line HeLa (ATCC CCL-2); test: SAC-Formation - Nocodazole-Induced Assay; format: cell-based; conditions: Homo sapiens, HeLa, 24 h, HeLa cells, nocodazole 0.1 μg/ml together with test compound, decrease of mitotic cells (phospho-histone H3 Ser10)
# value in nM; strip the unit string

Sample answers from the record:
CCN1CC[C@H](Oc2ccc(NC(=O)c3c(C)nsc3Nc3cnc(C(F)(F)F)cn3)cn2)[C@H](F)C1    74
Cc1nsc(Nc2cncc(C(F)(F)F)n2)c1C(=O)Nc1ccc(OC2CCN(CC(F)F)CC2)c(F)c1    110
Cc1nsc(Nc2cncc(C(F)(F)F)n2)c1C(=O)Nc1ccc(OC2CCCN(C(=O)OC(C)(C)C)C2)nc1 (stereo not shown)    150

API: the following record is the query input.
Give the measured IC50 of Cc1nsc(Nc2ccc(C#N)cn2)c1C(=O)Nc1ccc(OC2CCCN(CC(F)(F)F)C2)nc1 (stereo not shown) . 150

* * *

test system: HeLa; assay: Proliferation assay (crystal violet), HeLa; type: cell-based; conditions: Homo sapiens, HeLa, 96 h, HeLa cells; 4 days incubation; crystal violet staining; read-out: IC50 inhibition of proliferation, HeLa
readout type: IC50

CNS(=O)(=O)c1ccc(NC(=O)c2c(C)nsc2Nc2cnc(C(F)(F)F)cn2)cc1    > 10 µM
Cc1nsc(Nc2cncc(C(F)(F)F)n2)c1C(=O)Nc1ccc(OC2CCN(C)CC2)nc1    > 10 µM

Consider the molecule "Cc1nsc(Nc2cnc3ccccc3n2)c1C(=O)Nc1ccc(Oc2ccc(SC(F)(F)F)cc2)nc1" and give its measured IC50. > 10 µM

* * *

Recorded pIC50 for the following compounds
system: human cervical tumor cell line HeLa (ATCC CCL-2); assay: SAC-Formation - Nocodazole-Induced Assay; type: cell-based; conditions: Homo sapiens, HeLa, 24 h, HeLa cells, nocodazole 0.1 μg/ml together with test compound, decrease of mitotic cells (phospho-histone H3 Ser10)
pIC50 (log units): -log10 of the concentration in mol/L.

Past entries and their recorded results:
Cc1nsc(Nc2cnc(C(F)(F)F)cn2)c1C(=O)Nc1ccc(C(=O)OC(C)(C)C)cc1    8.74
Cc1nsc(Nc2cnc(C(F)(F)F)cn2)c1C(=O)Nc1ccc(OC[C@@H]2CCN(CC(F)F)C2)nc1    7.28
Cc1nsc(Nc2cnc(C(F)(F)F)cn2)c1C(=O)Nc1ccc(O[C@H]2CCN(CCC(F)(F)F)C[C@@H]2F)nc1    7.92
Cc1nsc(Nc2cnc3ccccc3n2)c1C(=O)Nc1ccc(NC2CC2)nc1    5.46
Cc1nsc(Nc2cnc(C(F)(F)F)cn2)c1C(=O)Nc1ccc(OCC2CCCN(CCC(F)(F)F)C2)nc1 (centres unmarked)    8.74
Cc1nsc(Nc2cnc(C(F)(F)F)cn2)c1C(=O)Nc1ccc(F)c(OC[C@@H]2CCN(CC(F)F)C2)c1    7.52

Consider the compound "CCCN1CC[C@@H](Oc2ccc(NC(=O)c3c(C)nsc3Nc3cnc(C(F)(F)F)cn3)cn2)[C@H](F)C1" and give its measured pIC50. 7.57

Which pIC50 reading was recorded for the compound "CCCN1C[C@H](F)[C@H](Oc2ccc(NC(=O)c3c(C)nsc3Nc3cnc(C(F)(F)F)cn3)cn2)C1" ? 8.51

Suppose we examine the compound "Cc1nsc(Nc2cncc(C(F)(F)F)n2)c1C(=O)Nc1ccc(OC2CCN(CCF)CC2)nc1" ; what pIC50 value has been reported? 6.03

May I ask what pIC50 has been recorded for "COc1cc(CNC(=O)c2cccc(NC(=O)c3c(C)nsc3Nc3cnc4ccccc4n3)c2)cc(OC)c1OC" ? 6.06

Sample "Cc1nsc(Nc2cnc(C(F)(F)F)cn2)c1C(=O)Nc1ccc(OCCCO)nc1" — what was its pIC50? 6.92

Quick check: pIC50 of "Cc1nsc(Nc2cnc(C(F)(F)F)cn2)c1C(=O)Nc1ccc(O[C@@H]2CCCN(CC(F)(F)F)C2)nc1" ? 7.39

Could you tell me which pIC50 is on file for Cc1nsc(Nc2cnc3ccccc3n2)c1C(=O)Nc1cccc(NS(=O)(=O)C2CCCN(C(=O)OCc3ccccc3)C2)c1 (centres unmarked) ? 5.85

* * *

test system: HeLa; assay: Proliferation assay (crystal violet), HeLa; assay type: cell-based; details: Homo sapiens, HeLa, 96 h, HeLa cells; 4 days incubation; crystal violet staining; read-out: IC50 inhibition of proliferation, HeLa
pIC50: −log10 of the molar value.
Decision: pIC50 compared against 6; not below it gives 1, below it gives -1.

Past entries and their recorded results:
Cc1nsc(Nc2cnc3ccccc3n2)c1C(=O)Nc1cccc(C(=O)NCCN2CCOCC2)c1 [Example 71]    -1
Cc1nsc(Nc2cnc(C(F)(F)F)cn2)c1C(=O)Nc1ccc(O[C@@H]2CCCN(CCC(F)(F)F)C2)nc1 [Example 387]    1
Cc1nsc(Nc2cnc3ccccc3n2)c1C(=O)Nc1cccc(C(=O)N2CCN(CC(=O)N(C)C)CC2)c1 [Example 92]    -1
Cc1cc(C)n(-c2ccccc2NC(=O)c2c(C)nsc2Nc2cnc3ccccc3n2)n1 [Example 243]    -1
Cc1nsc(Nc2cnc(C(F)(F)F)cn2)c1C(=O)Nc1ccc(F)c(OC[C@@H]2CCN(CC(F)(F)F)C2)c1 [Example 339]    1
Cc1nsc(Nc2cnc(C(F)(F)F)cn2)c1C(=O)Nc1ccc(C2CCN(CC(F)F)CC2)nc1 [Example 357]    1

For the next question, use this molecule.
Could you tell me if the measured pIC50 of Cc1nsc(Nc2cnc3ccccc3n2)c1C(=O)Nc1cccc(C(=O)N[C@H](C(=O)OC(C)(C)C)[C@@H](C)OC(C)(C)C)c1 [Example 57] reaches 6 or more? -1

* * *

tested on: human cervical tumor cell line HeLa (ATCC CCL-2); test: SAC-Formation - Nocodazole-Induced Assay; format: cell-based; conditions: Homo sapiens, HeLa, 24 h, HeLa cells, nocodazole 0.1 μg/ml together with test compound, decrease of mitotic cells (phospho-histone H3 Ser10)
readout type: IC50 (nM)
// return numeric value only (unit: nM, not printed)

// worked examples, IC50 included
Cc1nsc(Nc2cncc(C(F)(F)F)n2)c1C(=O)Nc1ccc(OC2CCNCC2)nc1 [Example 13]    4600
Cc1noc(-c2cccc(NC(=O)c3c(C)nsc3Nc3cnc4ccccc4n3)c2)n1 [Example 106]    140
Cc1nsc(Nc2cnc(C(F)(F)F)cn2)c1C(=O)Nc1ccc(F)c(OCC2CCN(CC(F)F)CC2)c1 [Example 308]    31
C#CCN(C)C(=O)c1cccc(NC(=O)c2c(C)nsc2Nc2cnc3ccccc3n2)c1 [Example 62]    440
Cc1nsc(Nc2cnc(C(F)(F)F)cn2)c1C(=O)Nc1ccc(OCCCNCC(F)F)nc1 [Example 293]    3100

What value of IC50 has been reported for the following compound? Cc1cc(C)n(-c2ccccc2NC(=O)c2c(C)nsc2Nc2cnc3ccccc3n2)n1 [Example 243] 1800

Entry Cc1nsc(Nc2cnc(C(F)(F)F)cn2)c1C(=O)Nc1ccc(O[C@H]2CCN(CC(F)F)C2)nc1 [Example 382] : reported IC50 = ? 24

Dear colleague, I am looking for the recorded IC50 of the following compound: Cc1nsc(Nc2cnc(C(F)(F)F)cn2)c1C(=O)Nc1ccc(O[C@H]2CCCN(CC(F)(F)F)C2)nc1 [Example 389] 93

* * *

The following molecules are listed with their measured pIC50 values.
test system: HeLa; test: Proliferation assay (crystal violet), HeLa; assay type: cell-based; conditions: Homo sapiens, HeLa, 96 h, HeLa cells; 4 days incubation; crystal violet staining; read-out: IC50 inhibition of proliferation, HeLa
FYI, pIC50 means -log10 of a concentration in mol per litre.

Recorded pIC50 of Cc1nsc(Nc2cc(C#N)ccn2)c1C(=O)Nc1ccc(Oc2cccnc2)nc1 [Example 119] , please. 5.28

What does the record list as pIC50 for Cc1nsc(Nc2cnc3ccccc3n2)c1C(=O)Nc1cccc(C(=O)N(C)CCCN(C)C)c1 [Example 68] ? 5.00

Record request: pIC50 value, item Cc1nsc(Nc2cnc(C(F)(F)F)cn2)c1C(=O)Nc1ccc(OCC2CCCN(CC(F)F)C2)nc1 (centres unmarked) [Example 327] 6.43

Quick one: pIC50 for CC(=O)N1CCC(Oc2ccc(NC(=O)c3c(C)nsc3Nc3cncc(C(F)(F)F)n3)cn2)CC1 [Example 17] ? 5.62

Query (molecule): Cc1nsc(Nc2cc(C#N)ccn2)c1C(=O)Nc1ccc(C(=O)OC(C)(C)C)cc1 [Example 182] ; field requested: pIC50 6.18

GET /values?readout=pIC50&item= Cc1nsc(Nc2cnc3ccccc3n2)c1C(=O)Nc1ccc(OCCC(=O)OC(C)(C)C)nc1 [Example 198] 5.17

Data request, read-out pIC50, for Cc1nsc(Nc2nc3c(C(F)(F)F)cccc3s2)c1C(=O)Nc1ccc(OCCO)nc1 [Example 2] 5.31

Quick one: pIC50 for Cc1nsc(Nc2ccc(C#N)cn2)c1C(=O)Nc1ccc(OC2CCN(C(=O)OC(C)(C)C)CC2)nc1 [Example 27] ? 6.20

Requested field: pIC50. Item: Cc1nsc(Nc2cnc(C(F)(F)F)cn2)c1C(=O)Nc1ccc(F)c(OC2CCN(CCF)CC2)c1 [Example 266] 6.51

Return reported pIC50; argument: Cc1nsc(Nc2ccc(C#N)cn2)c1C(=O)Nc1ccc(OCCC(=O)OC(C)(C)C)nc1 [Example 199] 5.06
